Test system: MDA-MB-468 spheroids with HUVEC/MSC, viability
Assay: Anticancer human tumor MDA-MB-468 cell line growth inhibition [PI3K];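 note: spheroids exposed to agents for seven days before readout; 100% = DMSO vehicle control viability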
Settings: second compound 0.1 µM; first compound 0.316 µM; hits give low values
Kindly state viability, T/C for each of the entries shown.
One number for each entry, in %.

MOLECULE	viability, T/C (%)
C[C@@H](NC(=O)c1ncnc(N)c1Cl)c1ncc(C(=O)Nc2cc(C(F)(F)F)c(Cl)cn2)s1 + COc1c(OCCCN2CCOCC2)ccc2c3n(c(=NC(=O)c4cnc(N)nc4)nc12)CCN3	57.5
CC1(C)CCC(CN2CCN(c3ccc(C(=O)NS(=O)(=O)c4ccc(NCC5CCOCC5)c([N+](=O)[O-])c4)c(Oc4cnc5[nH]ccc5c4)c3)CC2)=C(c2ccc(Cl)cc2)C1 + Cc1nc(NC(=O)N2CCCC2C(N)=O)sc1-c1ccnc(C(C)(C)C(F)(F)F)c1	80.2
CC(Cn1ccc(-c2ccc(C#N)c(Cl)c2)n1)NC(=O)c1cc(C(C)O)[nH]n1 (centres undefined) + CC(Nc1ncnc2nc[nH]c12)c1cc2cccc(Cl)c2c(=O)n1-c1ccccc1	76.5

Now look at this entry.
Please report the recorded viability, T/C for CC(C)NCC(C(=O)N1CCN(c2ncnc3c2C(C)CC3O)CC1)c1ccc(Cl)cc1 (centres undefined) + COc1c(OCCCN2CCOCC2)ccc2c3n(c(=NC(=O)c4cnc(N)nc4)nc12)CCN3 .
49.1

====

Tested on: MDA-MB-468 spheroids with HUVEC/MSC, viability
Test: Anticancer human tumor MDA-MB-468 cell line growth inhibition [PI3K];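 note: spheroids exposed to agents for seven days before readout; 100% = DMSO vehicle control viability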
Conditions: second compound 0.1 µM; first compound 0.00316 µM; hits give low values
RECORDED_ENDPOINT: viability, T/C (%)
One number for each entry, in %.

Some compounds with known viability, T/C results, for comparison:
COMPOUND	MEASUREMENT
CCN1CCN(Cc2ccc(Nc3ncc(F)c(-c4cc(F)c5nc(C)n(C(C)C)c5c4)n3)nc2)CC1 + CC(Nc1ncnc2nc[nH]c12)c1cc2cccc(Cl)c2c(=O)n1-c1ccccc1	85.3
Cn1ncnc1[C@H]1c2n[nH]c(=O)c3cc(F)cc(c23)N[C@@H]1c1ccc(F)cc1 + COc1c(OCCCN2CCOCC2)ccc2c3n(c(=NC(=O)c4cnc(N)nc4)nc12)CCN3	63.4
CCN1CCN(Cc2ccc(Nc3ncc(F)c(-c4cc(F)c5nc(C)n(C(C)C)c5c4)n3)nc2)CC1 + COc1c(OCCCN2CCOCC2)ccc2c3n(c(=NC(=O)c4cnc(N)nc4)nc12)CCN3	56.6
Cn1ncnc1[C@H]1c2n[nH]c(=O)c3cc(F)cc(c23)N[C@@H]1c1ccc(F)cc1 + CC(Nc1ncnc2nc[nH]c12)c1cc2cccc(Cl)c2c(=O)n1-c1ccccc1	85
CC(C)n1nc(-c2ccc3oc(N)nc3c2)c2c(N)ncnc21 + CC(Nc1ncnc2nc[nH]c12)c1cc2cccc(Cl)c2c(=O)n1-c1ccccc1	77.9

Please state viability, T/C for every compound in the list that follows.
1. CC(C)n1nc(-c2ccc3oc(N)nc3c2)c2c(N)ncnc21 + COc1c(OCCCN2CCOCC2)ccc2c3n(c(=NC(=O)c4cnc(N)nc4)nc12)CCN3
2. CCN1CCN(Cc2ccc(Nc3ncc(F)c(-c4cc(F)c5nc(C)n(C(C)C)c5c4)n3)nc2)CC1 + CC(Nc1ccc2c(c1)OCCn1cc(N3C(=O)OCC3C(F)F)nc1-2)C(N)=O
3. CC(=O)c1c(C)c2cnc(Nc3ccc(N4CCNCC4)cn3)nc2n(C2CCCC2)c1=O + Cc1nc(NC(=O)N2CCCC2C(N)=O)sc1-c1ccnc(C(C)(C)C(F)(F)F)c1

1: 53.7; 2: 106; 3: 86.5
